# tested_on: T1, human β-klotho (human, UniProt Q86Z14 1-1044)
# T1 sequence (looked up): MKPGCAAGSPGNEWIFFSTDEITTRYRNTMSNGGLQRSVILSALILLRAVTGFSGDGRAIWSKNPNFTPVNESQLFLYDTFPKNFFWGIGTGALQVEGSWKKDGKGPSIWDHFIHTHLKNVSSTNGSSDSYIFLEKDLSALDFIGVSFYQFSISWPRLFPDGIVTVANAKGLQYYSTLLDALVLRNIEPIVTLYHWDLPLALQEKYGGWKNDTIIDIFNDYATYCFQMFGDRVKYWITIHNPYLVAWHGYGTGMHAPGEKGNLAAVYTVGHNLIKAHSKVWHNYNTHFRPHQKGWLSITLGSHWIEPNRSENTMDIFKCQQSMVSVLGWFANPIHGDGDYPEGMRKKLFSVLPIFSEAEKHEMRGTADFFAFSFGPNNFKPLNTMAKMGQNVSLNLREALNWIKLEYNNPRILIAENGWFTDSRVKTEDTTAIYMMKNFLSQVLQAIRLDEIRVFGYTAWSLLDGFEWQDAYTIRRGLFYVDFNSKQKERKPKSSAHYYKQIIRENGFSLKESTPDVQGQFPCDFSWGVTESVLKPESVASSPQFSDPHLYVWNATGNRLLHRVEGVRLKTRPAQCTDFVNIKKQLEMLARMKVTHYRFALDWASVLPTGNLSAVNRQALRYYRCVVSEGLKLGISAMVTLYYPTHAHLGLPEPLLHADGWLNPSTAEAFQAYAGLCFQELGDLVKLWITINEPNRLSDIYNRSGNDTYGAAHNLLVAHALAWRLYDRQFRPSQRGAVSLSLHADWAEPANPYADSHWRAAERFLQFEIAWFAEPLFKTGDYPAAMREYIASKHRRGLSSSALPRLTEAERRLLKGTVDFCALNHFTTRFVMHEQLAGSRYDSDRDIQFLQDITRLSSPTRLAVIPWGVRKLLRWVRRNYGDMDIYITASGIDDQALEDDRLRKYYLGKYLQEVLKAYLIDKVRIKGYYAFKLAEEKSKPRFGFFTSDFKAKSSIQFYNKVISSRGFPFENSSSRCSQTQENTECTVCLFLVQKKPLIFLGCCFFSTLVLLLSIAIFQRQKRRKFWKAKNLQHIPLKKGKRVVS
# procedure_text: cell-based or functional assay
# Fold-WT (EC50 of variant / EC50 of FGF21-WT) annotations
parameter: Fold-WT (EC50 of variant / EC50 of FGF21-WT)

binder | value
hFGF21(33-209)-WT-N-40 kDa bPEG-AL (ligand, 40 kDa branched PEG (aldehyde reagent) on the N-terminal amine) DSSPLLQFGGQVRQRYLYTDDAQQTEAHLEIREDGTVGGAADQSPESLLQLKALKPGVIQILGVKTSRFLCQRPDGALYGSLHFDPEACSFRELLLEDGYNVYQSEAHGLPLHLPGNKSPHRDPAPRGPARFLPLPGLPPALPEPPGILAPQPPDVGSSDPLSMVGPSQGRSPSYAS | 6.3 fold
hFGF21(33-209)-V87 (ligand) DSSPLLQFGGQVRQRYLYTDDACQTEAHLEIREDGTVGGAADQSPESLLQLRALRPGVIQILGVRTSRFLCQRPDGALYGSLHFDPEACSFRELLLEDGYNVYQSEAHGLPLHLPCNRSPHKDPAPRGPARFLPLPGLPPAPPEPPGILAPQPPDVGSSDPLAMVGPSQGRSPSYAS | 1.6 fold
